Recorded values, source patent US5274121A.

target-system: muscarinic receptors, SK-N-SH cell membranes (m4 AChR) (Homo sapiens, UniProt P20309)
Construct: membranes from SK-N-SH cells; endogenous in cells; host or cells: SK-N-SH human neuroblastoma cells (crude membrane fraction)
Sequence (P20309 whole entry): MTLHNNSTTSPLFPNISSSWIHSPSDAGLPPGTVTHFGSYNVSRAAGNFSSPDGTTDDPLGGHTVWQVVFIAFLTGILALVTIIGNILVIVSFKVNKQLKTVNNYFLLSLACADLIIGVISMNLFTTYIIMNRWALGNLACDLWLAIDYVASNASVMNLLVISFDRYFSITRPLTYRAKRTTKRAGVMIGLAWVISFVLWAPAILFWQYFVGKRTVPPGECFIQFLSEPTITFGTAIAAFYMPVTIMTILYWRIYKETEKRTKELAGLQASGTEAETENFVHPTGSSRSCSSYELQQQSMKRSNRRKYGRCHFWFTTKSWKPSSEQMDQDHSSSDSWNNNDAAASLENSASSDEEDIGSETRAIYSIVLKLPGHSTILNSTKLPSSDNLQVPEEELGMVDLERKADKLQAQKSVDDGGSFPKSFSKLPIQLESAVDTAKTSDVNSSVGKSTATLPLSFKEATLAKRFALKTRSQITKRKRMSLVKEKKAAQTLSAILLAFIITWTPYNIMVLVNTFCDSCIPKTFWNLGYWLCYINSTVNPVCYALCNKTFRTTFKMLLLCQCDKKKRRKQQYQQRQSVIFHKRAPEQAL
assay-protocol: Inhibition of [3H]-NMS binding to membranes from SK-N-SH cells
condition-notes: SK-N-SH cells; conc. of compounds = 100 μM
Classification field: enter true for inhibition at 100 µM values not below 30%, false for values below it.

- smiles-text: "CN(CC#CCN1CCCC1)C(=O)CCCNC(=O)OC(C)(C)C"
  target-system: "muscarinic receptors, SK-N-SH cell membranes (m4 AChR) (Homo sapiens, UniProt P20309)"
  category-label: "true"
- smiles-text: "CN(CC#CCN1CCCC1)C(=O)CNC(=O)OC(C)(C)C"
  target-system: "muscarinic receptors, SK-N-SH cell membranes (m4 AChR) (Homo sapiens, UniProt P20309)"
  category-label: "true"
- smiles-text: "CN(CC#CCN1CCCC1)C(=O)CCCN"
  target-system: "muscarinic receptors, SK-N-SH cell membranes (m4 AChR) (Homo sapiens, UniProt P20309)"
  category-label: "false"
- smiles-text: "CN(CC#CCN1CCCC1)C(=O)CCCCN"
  target-system: "muscarinic receptors, SK-N-SH cell membranes (m4 AChR) (Homo sapiens, UniProt P20309)"
  category-label: "true"
- smiles-text: "CN(CC#CCN1CCCC1)C(=O)CCCCCCN"
  target-system: "muscarinic receptors, SK-N-SH cell membranes (m4 AChR) (Homo sapiens, UniProt P20309)"
  category-label: "true"

Problem: Would you say CC(=O)NCCC(=O)N(C)CC#CCN1CCCC1 shows inhibition at 100 µM at minimum 30%?
Solution: true

Problem: Dear colleague, could you confirm whether CN(CC#CCN1CCCC1)C(=O)CCCCCCCN has inhibition at 100 µM at or above 30%?
Solution: true

Problem: Reported inhibition at 100 µM at or above 30%? CC(=O)NCCCCCCC(=O)N(C)CC#CCN1CCCC1
Solution: false

Problem: Confirm if inhibition at 100 µM reported for the compound CN(CC#CCN1CCCC1)C(=O)CCCCCNC(=O)CNC(=O)OC(C)(C)C is 30% or above.
Solution: true
